Attribution: PubChem BioAssay AID463173

System: DeltatarO mutant
protocol.description: S. aureus survival, RN4220 and DeltatarO strains – OD600, teichoic acid synthesis inhibitors, primary screen (AID 463173)
test.context: S. aureus RN4220 wild type/DeltatarO growth, OD600, 18 h, screened at 18.75 µg/mL (by protocol)
The campaign covered roughly 52,000 compounds. About 4,300 (8.3%) were called active. Rule as the data show it: active = survival mostly below about 52% (no sharp cut-off); inactive = mostly above about 56%. The full list was thinned out, with actives kept by preference.
Outcomes: active, inactive

molecule	label.class
CCC(Cn1nnc2ccccc2c1=O)NC(=O)Nc1cc(Cl)ccc1OC (stereo unspecified)	inactive
Cc1ccc2[nH]cc(S(=O)(=O)c3ccc(C)c(C)c3)c(=O)c2c1	inactive
COc1ccc(C(CN)c2c[nH]c3ccccc23)cc1 (stereo unspecified)	inactive
Cc1ccccc1CNC(=O)CCCn1c(=O)c2cccn2c2ccccc21	inactive
CN(C)CCNC(=O)CCCn1c(=O)c2cccn2c2ccccc21	inactive
COc1ccc(Br)cc1CNC(=O)CCCn1c(=O)c2cccn2c2cccnc21	inactive
O=C(CCCn1c(=O)c2cccn2c2ccccc21)NCc1ccccc1Br	active
CCOc1ccc(CCNC(=O)CCCn2nc(C)c3sc4ccccc4c3c2=O)cc1	inactive
COc1ccccc1CNC(=O)CCCn1c(=O)c2cccn2c2ccccc21	inactive
Cc1ccc2[nH]cc(C(c3ccccc3)c3ccc(Cl)s3)c2c1 (stereo unspecified)	active
O=C(CCCn1c(=O)c2cccn2c2cccnc21)NCc1ccccc1Br	inactive
